Target: IRAK-4 (Homo sapiens, UniProt Q9NWZ3)
Sequence (Q9NWZ3 whole entry): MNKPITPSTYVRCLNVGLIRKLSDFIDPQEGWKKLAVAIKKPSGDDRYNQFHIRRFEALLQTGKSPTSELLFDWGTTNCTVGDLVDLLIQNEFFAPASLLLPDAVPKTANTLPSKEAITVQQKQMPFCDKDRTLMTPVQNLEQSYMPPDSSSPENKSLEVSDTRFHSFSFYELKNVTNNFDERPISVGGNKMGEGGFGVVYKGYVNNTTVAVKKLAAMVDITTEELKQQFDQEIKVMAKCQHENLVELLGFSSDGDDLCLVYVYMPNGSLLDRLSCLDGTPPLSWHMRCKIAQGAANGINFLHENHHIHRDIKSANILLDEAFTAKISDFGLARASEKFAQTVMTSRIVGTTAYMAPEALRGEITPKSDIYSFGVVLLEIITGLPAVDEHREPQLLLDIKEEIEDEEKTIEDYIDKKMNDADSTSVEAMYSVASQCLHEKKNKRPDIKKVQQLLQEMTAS
Assay: IRAK-4 ELISA, PBMC degradation
Type: cell-based
Set-up: endogenous in cells; host or cells: PBMC
Details: treated overnight
Would you mind telling me the reported DC50 of each entry?

// query # query: DC50 | item CN1CC(Oc2cc3nn(C4CCN(CC5(F)CN(c6ccc7c(c6)C(=O)N(C6CCC(=O)NC6=O)C7=O)C5)CC4)cc3cc2NC(=O)c2cnn3cccnc23)C1 (stereo not drawn) | system: IRAK-4 (Homo sapiens, UniProt Q9NWZ3)
// result ≥ 10 nM

// query Give the reported DC50 for O=C1CCC(N2C(=O)c3ccc(N4CC[C@@H](O[C@H]5CC[C@H](n6cc7cc(NC(=O)c8cnn9cccnc89)c(OCC8CC8)cc7n6)CC5)C4)cc3C2=O)C(=O)N1 (stereo partly drawn) (system: IRAK-4 (Homo sapiens, UniProt Q9NWZ3)).
// result ≥ 10 nM

// query Record O=C1CCC(N2Cc3cc(N4CC(F)(CN5CCC(n6cc7cc(NC(=O)c8cnn9cccnc89)c(OC8CCC8)cc7n6)CC5)C4)ccc3C2=O)C(=O)N1 (stereo not drawn) [Example 214] : what is its DC50 with IRAK-4 (Homo sapiens, UniProt Q9NWZ3)?
// result < 1 nM

// query So what DC50 did COc1cc(N2CCC(CN3CCC(N4Cc5cc(NC(=O)c6cnn7cccnc67)c(OC(C)C)cc5C4=O)CC3)CC2)cc2c1C(=O)N(C1CCC(=O)NC1=O)C2=O (stereo not drawn) get with IRAK-4 (Homo sapiens, UniProt Q9NWZ3)?
// result < 1 nM

// query State its DC50 on IRAK-4 (Homo sapiens, UniProt Q9NWZ3): Cc1cnc2c(C(=O)Nc3cc4c(cc3OC(C)C)C(=O)N(C3CCN(CC5CCN(c6ccc7c(c6)C(=O)N(C6CCC(=O)NC6=O)C7=O)CC5)CC3)C4)cnn2c1 (stereo not drawn)
// result 1 to 5 nM

// query State its DC50 on IRAK-4 (Homo sapiens, UniProt Q9NWZ3): CN(C1CCN(c2ccc3c(c2)C(=O)N(C2CCC(=O)NC2=O)C3=O)CC1)[C@H]1CC[C@H](n2cc3cc(NC(=O)c4cnn5cccnc45)c(C4CC4)cc3n2)CC1 (stereo partly drawn)
// result < 1 nM

// query What measured DC50 is associated with CN(C1CCC(n2cc3cc(NC(=O)c4cnn5cccnc45)c(OCC4CC4)cc3n2)CC1)C1CN(c2ccc3c(c2)C(=O)N(C2CCC(=O)NC2=O)C3)C1 (stereo not drawn) on IRAK-4 (Homo sapiens, UniProt Q9NWZ3)?
// result 1 to 5 nM

// query I'm curious: which DC50 was measured for O=C1CCC(N2C(=O)c3ccc(N4CC(CN5CCC(n6cc7cc(NC(=O)c8cnn9cccnc89)c(C8CC8)cc7n6)CC5)C4)cc3C2=O)C(=O)N1 (stereo not drawn) tested on IRAK-4 (Homo sapiens, UniProt Q9NWZ3)?
// result < 1 nM

// query Quick check: DC50 on IRAK-4 (Homo sapiens, UniProt Q9NWZ3), item O=C1CCC(N2C(=O)c3ccc(N4CC(F)(CN5CCC(N6Cc7cc(NC(=O)c8cnn9cccnc89)c(N8CCC(N9CCC9)CC8)cc7C6=O)CC5)C4)cc3C2=O)C(=O)N1 (stereo not drawn) ?
// result 1 to 5 nM

// query Please tell me: DC50 of CC(C)Oc1cc2c(cc1NC(=O)c1cnn3cccnc13)CN(C1CCN(C(C)(C)C3CCN(c4ccc5c(c4)C(=O)N(C4CCC(=O)NC4=O)C5=O)CC3)CC1)C2=O (stereo not drawn) , system IRAK-4 (Homo sapiens, UniProt Q9NWZ3)?
// result < 1 nM

// query Query DC50 on IRAK-4 (Homo sapiens, UniProt Q9NWZ3) for CN(C1CCC(N2Cc3cc(NC(=O)c4cnn5cccnc45)c(OC4CC4)cc3C2=O)CC1)C1CN(c2ccc3c(c2)C(=O)N(C2CCC(=O)NC2=O)C3=O)C1 (stereo not drawn)
// result < 1 nM

// query // lookup DC50 | system=IRAK-4 (Homo sapiens, UniProt Q9NWZ3) | key= O=C1CCC(N2C(=O)c3cc(F)c(N4CC(F)(CN5CCC(n6cc7cc(NC(=O)c8cnn9cccnc89)c(OCC8CC8)cc7n6)CC5)C4)cc3C2=O)C(=O)N1 (stereo not drawn)
// result 5 to 10 nM

// query Write down the reported DC50 of C=C(CN1CCC(N2Cc3cc(NC(=O)c4cnn5cccnc45)c(OC(C)C)cc3C2=O)CC1)C1CCN(c2ccc3c(c2)C(=O)N(C2CCC(=O)NC2=O)C3=O)CC1 (stereo not drawn) , test system: IRAK-4 (Homo sapiens, UniProt Q9NWZ3).
// result 1 to 5 nM

// query Observed DC50 on IRAK-4 (Homo sapiens, UniProt Q9NWZ3) for CC(C)Oc1cc2nn(C3CCN(CC4(F)CN(c5ccc6c(c5)C(=O)N(C5CCC(=O)NC5=O)C6=O)C4)CC3)cc2cc1NC(=O)c1cnn2ccc(N3CCOCC3)nc12 (stereo not drawn) , please.
// result ≥ 10 nM

// query GET /values?readout=DC50&system=IRAK-4 (Homo sapiens, UniProt Q9NWZ3)&item= CN(CC1CCN(c2ccc3c(c2)C(=O)N(C2CCC(=O)NC2=O)C3=O)CC1)[C@H]1CC[C@H](n2cc3cc(NC(=O)c4cnn5cccnc45)c(OCC(F)F)cc3n2)CC1 (stereo partly drawn)
// result < 1 nM

// query Entry CN(C1CN(c2ccc3c(c2)CN(C2CCC(=O)NC2=O)C3=O)C1)[C@H]1CC[C@H](n2cc3cc(NC(=O)c4cnn5cccnc45)c(OCC4CC4)cc3c2)CC1 (stereo partly drawn) , system IRAK-4 (Homo sapiens, UniProt Q9NWZ3): what DC50 was measured?
// result < 1 nM

// query Test system IRAK-4 (Homo sapiens, UniProt Q9NWZ3); read-out DC50; what value for O=C1CCC(N2Cc3cc(N4CCC(CN5CCC(n6cc7cc(NC(=O)c8cnn9cccnc89)c(OCC(F)F)cc7n6)CC5)CC4)ccc3C2=O)C(=O)N1 (stereo not drawn) [Example 149] ?
// result < 1 nM

// query Hi! What's the reported DC50 for O=C1CCC(N2Cc3cc(N4CCC(CN5CCC(N6Cc7cc(NC(=O)c8cnn9cccnc89)c(OCC8CC8)cc7C6=O)CC5)CC4)ccc3C2=O)C(=O)N1 (stereo not drawn) on IRAK-4 (Homo sapiens, UniProt Q9NWZ3)?
// result < 1 nM

// query Under IRAK-4 (Homo sapiens, UniProt Q9NWZ3): DC50 value of O=C1CCC(N2C(=O)c3ccc(N4CC5(CCC(N6CCC(n7cc8cc(NC(=O)c9cnn%10cccnc9%10)c(OCC9CC9)cc8n7)CC6)CC5)C4)cc3C2=O)C(=O)N1 (stereo not drawn) ?
// result 1 to 5 nM

// query Item CC(C)Oc1nc2c(cc1NC(=O)c1cnn3cccnc13)CN(C1CCN(CC3CCN(c4ccc(C(=O)NC5CCC(=O)NC5=O)c(F)c4)CC3)CC1)C2=O (stereo not drawn) with IRAK-4 (Homo sapiens, UniProt Q9NWZ3) - DC50?
// result 1 to 5 nM

// query State its DC50 on IRAK-4 (Homo sapiens, UniProt Q9NWZ3): CC(C)Oc1cc2c(cc1NC(=O)c1cnn3cccnc13)CN(CCOCC1CCN(c3ccc4c(c3)C(=O)N(C3CCC(=O)NC3=O)C4=O)CC1)C2=O (stereo not drawn)
// result < 1 nM
